assayed_system: GST-SBP-SLBP (stem-loop binding protein) (Homo sapiens, UniProt Q14493 1-270)
procedure_details: targeted RNA Bind-n-Seq; RBNS binding buffer: 25 mM Tris pH 7.5, 150 mM KCl, 3 mM MgCl2, 0.1% Tween, 0.5 mg/mL BSA, 1 mM DTT; 27 nM protein, 750 pM RNA pool; temperature not stated; high values mean tight binding
recorded_conditions: protein: recombinant; tags: N-terminal GST and SBP (pGEX6P1-SBP)
Catalogue of binding signal readings, one per entry.
observed_property: binding signal (log2 fold change)

> print(dat)
                                     binder  numeric.result
1  consensus (structured_RNA) RNA: GGUCACGUCUCAAUCAACUCCCAAAGGCUCUUUUAAGAGCCACCCAUCAACAGCUCGCAGUCAAG             3.5
2  consensus (structured_RNA) RNA: GGUCACGUCUCAAUCAACUCCCAAAGGCUUUUCUGAAGGCCACCCAUCAACAGCUCGCAGUCAAG               2
3  consensus (structured_RNA) RNA: GGUCACGUCUCAAUCAACUCCCAAAGGUUUUUCUCAAAACCACCCAUCAACAGCUCGCAGUCAAG            2.81
4  consensus (structured_RNA) RNA: GGUCACGUCUCAAUCAACUCCCAAAGGCUUUUCUCAAGGCCACCCAUCAACAGCUCGCAGUCAAG            2.96
5  consensus (structured_RNA) RNA: GGUCACGUCUCAAUCAACUCCCAAAGGUUUUUUUAAAAACCACCCAUCAACAGCUCGCAGUCAAG            2.88

Numbers sourced from paper PMC5892938.
